Values compiled from patent US20120172295A1.

molecular target: GLP-1 receptor (UniProt P43220 24-463, limits assumed); experiment: cell-based or functional assay
Non-standard residues stand in square brackets, D forms with d. Groups on a side chain read outwards from the residue. No end group written: not given here. *: point of attachment. Palmitoyl = CCCCCCCCCCCCCCCC(=O)*; Aib = CC(C)(N)C(=O)O
value_type: EC50 (nM)
The reply should be a number in nM, with the unit left off.

Any idea what EC50 was measured for H[Aib]QGTFTSDK([Trp-Palmitoyl])SKYLD[Aib]RRA[Aib]DFVC(PEG 40 kDa)WLMNT-NH2 [Glucagon (1-29a) Aib2 Lys10-Trp-C16 Aib16 Aib20 Cys24-40 kD] ?
0.6
